experiment: Chemical stability of the compound at pH 2 phosphate buffer assessed as time required for 50% hydrolytic degradation at 100 ug/ml and 40 degreeC by UPLC-UV analysis; format: physicochemical; conditions: dose 100 µg/ml, read-out: Time (converted)
Assay Endpoint: half-life at 100 ug/ml (h)
Your answer should be a plain number; it is taken to be in h.

>>> observed_measurement("C[C@H](Nc1nc(N)nc(N)c1C#N)c1nc2cccc(F)c2c(=O)n1-c1cc(F)cc(F)c1")
34
>>> observed_measurement("C[C@H](Nc1nc(N)nc(N)c1C#N)c1nc2cccc(Cl)c2c(=O)n1-c1ccccc1")
358

Answer with reported half-life at 100 ug/ml of C[C@H](Nc1nc(N)nc(N)c1C#N)c1nc2c(Cl)ccc(Cl)c2c(=O)n1-c1cccnc1 15

Return half-life at 100 ug/ml for the following molecule: Cc1c(F)cncc1-n1c([C@H](C)Nc2nc(N)nc(N)c2C#N)nc2cccc(Cl)c2c1=O (stereo in doubt; 27) 30

====

target: Phosphatidylinositol 4,5-bisphosphate 3-kinase catalytic subunit gamma isoform (Homo sapiens, UniProt P48736); assay: Inhibition of human full length PI3K p110gamma using […] as substrate measured after 30 mins by TR-FRET assay
Sequence (P48736 whole entry, canonical isoform): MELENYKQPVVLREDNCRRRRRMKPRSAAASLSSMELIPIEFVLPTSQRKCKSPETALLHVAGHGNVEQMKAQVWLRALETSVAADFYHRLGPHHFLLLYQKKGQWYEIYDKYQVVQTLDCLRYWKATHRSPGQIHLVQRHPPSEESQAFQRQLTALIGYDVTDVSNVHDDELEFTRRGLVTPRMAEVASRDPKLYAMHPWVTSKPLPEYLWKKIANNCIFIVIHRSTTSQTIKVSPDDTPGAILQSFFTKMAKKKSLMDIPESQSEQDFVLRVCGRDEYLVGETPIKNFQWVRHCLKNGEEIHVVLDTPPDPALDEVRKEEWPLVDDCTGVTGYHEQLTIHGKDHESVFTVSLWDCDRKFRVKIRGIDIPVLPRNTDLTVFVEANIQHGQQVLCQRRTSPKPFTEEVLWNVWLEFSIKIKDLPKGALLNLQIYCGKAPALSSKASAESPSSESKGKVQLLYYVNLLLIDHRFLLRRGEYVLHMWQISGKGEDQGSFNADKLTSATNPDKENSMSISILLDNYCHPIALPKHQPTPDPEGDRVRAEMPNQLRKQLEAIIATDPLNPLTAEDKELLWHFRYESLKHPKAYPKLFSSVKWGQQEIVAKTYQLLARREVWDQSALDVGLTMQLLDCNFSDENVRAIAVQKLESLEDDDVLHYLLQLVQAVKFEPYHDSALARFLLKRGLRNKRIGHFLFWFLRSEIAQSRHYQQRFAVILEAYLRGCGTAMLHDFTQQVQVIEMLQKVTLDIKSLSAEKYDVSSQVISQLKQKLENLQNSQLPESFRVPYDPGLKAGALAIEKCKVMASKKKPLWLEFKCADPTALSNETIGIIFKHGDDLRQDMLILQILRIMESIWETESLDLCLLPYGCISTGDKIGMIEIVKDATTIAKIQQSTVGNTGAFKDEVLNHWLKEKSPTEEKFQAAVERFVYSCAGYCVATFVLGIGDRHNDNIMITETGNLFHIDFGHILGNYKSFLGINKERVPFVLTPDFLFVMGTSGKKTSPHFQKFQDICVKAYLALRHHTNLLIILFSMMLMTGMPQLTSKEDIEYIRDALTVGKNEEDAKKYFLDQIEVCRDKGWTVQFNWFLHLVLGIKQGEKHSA
Kindly apply the following: met if IC50 is less than 600 nM, not met in every other case.

Answer whether the compound Cc1c(F)cncc1-n1c([C@H](C)Nc2nc(N)nc(N)c2C#N)nc2cccc(Cl)c2c1=O (stereo in doubt; 27) has IC50 strictly less than 600 nM met

Is IC50 strictly under 600 nM for the entry COc1cncc(-n2c([C@H](C)Nc3nc(N)nc(N)c3C#N)nc3cccc(Cl)c3c2=O)c1 ? not met

Hi there! Is IC50 for CC[C@H](Nc1nc(N)nc(N)c1C#N)c1nc2c(F)ccc(Cl)c2c(=O)n1-c1cccnc1 below 600 nM, do you know? met

IC50 strictly < 600 nM for this compound? C[C@H](Nc1nc(N)nc(N)c1C#N)c1nc2c(Cl)ccc(Cl)c2c(=O)n1-c1cccnc1 met

Find out if reported IC50 for C[C@H](Nc1nc(N)nc(N)c1C#N)c1nc2cccc(Cl)c2c(=O)n1-c1cncc(C#N)c1 is less than 600 nM not met

Is the reported IC50 for Cc1ccncc1-n1c([C@H](C)Nc2nc(N)nc(N)c2C#N)nc2cccc(Cl)c2c1=O (stereo in doubt; 25) strictly below 600 nM? met

Is 600 nM strictly greater than the compound's reported IC50? compound: C[C@H](Nc1nc(N)nc(N)c1C#N)c1nc2c(Cl)cccc2c(=O)n1-c1cccnc1 not met

I'd appreciate it if you could check whether Cc1ncccc1-n1c([C@H](C)Nc2nc(N)nc(N)c2C#N)nc2cccc(Cl)c2c1=O (stereo in doubt; 24) has IC50 smaller than 600 nM. not met

====

test: MRT in cynomolgus monkey at 1 mg/kg, iv measured over 24 hrs by LC/MS/MS analysis; type: ADME, organism-based, Macaca fascicularis; conditions: in vivo
Assay Endpoint: MRT (h)
Respond numerically; units are h and should not be typed.

Tell me MRT reported for N#Cc1c(N)nc(N)nc1N[C@H](c1nc2c(F)ccc(Cl)c2c(=O)n1-c1cccnc1)C1CC1 3.05

====

biological target: PI3-kinase p110-alpha/p85-alpha (Homo sapiens, UniProt P42336); assay: Inhibition of human full length PI3K p110alpha/p85alpha using […] as substrate measured after 30 mins by TR-FRET assay
Sequence (P27986 whole entry): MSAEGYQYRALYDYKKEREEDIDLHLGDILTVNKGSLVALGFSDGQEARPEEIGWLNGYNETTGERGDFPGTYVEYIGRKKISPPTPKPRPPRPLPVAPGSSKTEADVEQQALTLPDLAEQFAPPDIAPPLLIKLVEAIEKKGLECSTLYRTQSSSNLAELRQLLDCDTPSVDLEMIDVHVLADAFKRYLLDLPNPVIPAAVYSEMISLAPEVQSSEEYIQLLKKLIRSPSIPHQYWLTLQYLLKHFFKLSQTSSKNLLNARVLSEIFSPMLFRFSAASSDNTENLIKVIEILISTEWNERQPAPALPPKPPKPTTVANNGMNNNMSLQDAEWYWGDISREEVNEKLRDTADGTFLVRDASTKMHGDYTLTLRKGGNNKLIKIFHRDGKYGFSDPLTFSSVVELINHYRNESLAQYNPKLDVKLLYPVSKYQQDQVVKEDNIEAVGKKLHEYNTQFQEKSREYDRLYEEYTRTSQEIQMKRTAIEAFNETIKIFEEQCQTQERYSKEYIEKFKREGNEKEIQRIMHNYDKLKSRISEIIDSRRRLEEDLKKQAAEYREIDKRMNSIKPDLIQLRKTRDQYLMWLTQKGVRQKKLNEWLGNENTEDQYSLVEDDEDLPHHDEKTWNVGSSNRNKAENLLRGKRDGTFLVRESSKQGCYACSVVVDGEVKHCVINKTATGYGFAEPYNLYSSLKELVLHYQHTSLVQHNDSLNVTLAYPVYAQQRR
Sequence (P42336 whole entry): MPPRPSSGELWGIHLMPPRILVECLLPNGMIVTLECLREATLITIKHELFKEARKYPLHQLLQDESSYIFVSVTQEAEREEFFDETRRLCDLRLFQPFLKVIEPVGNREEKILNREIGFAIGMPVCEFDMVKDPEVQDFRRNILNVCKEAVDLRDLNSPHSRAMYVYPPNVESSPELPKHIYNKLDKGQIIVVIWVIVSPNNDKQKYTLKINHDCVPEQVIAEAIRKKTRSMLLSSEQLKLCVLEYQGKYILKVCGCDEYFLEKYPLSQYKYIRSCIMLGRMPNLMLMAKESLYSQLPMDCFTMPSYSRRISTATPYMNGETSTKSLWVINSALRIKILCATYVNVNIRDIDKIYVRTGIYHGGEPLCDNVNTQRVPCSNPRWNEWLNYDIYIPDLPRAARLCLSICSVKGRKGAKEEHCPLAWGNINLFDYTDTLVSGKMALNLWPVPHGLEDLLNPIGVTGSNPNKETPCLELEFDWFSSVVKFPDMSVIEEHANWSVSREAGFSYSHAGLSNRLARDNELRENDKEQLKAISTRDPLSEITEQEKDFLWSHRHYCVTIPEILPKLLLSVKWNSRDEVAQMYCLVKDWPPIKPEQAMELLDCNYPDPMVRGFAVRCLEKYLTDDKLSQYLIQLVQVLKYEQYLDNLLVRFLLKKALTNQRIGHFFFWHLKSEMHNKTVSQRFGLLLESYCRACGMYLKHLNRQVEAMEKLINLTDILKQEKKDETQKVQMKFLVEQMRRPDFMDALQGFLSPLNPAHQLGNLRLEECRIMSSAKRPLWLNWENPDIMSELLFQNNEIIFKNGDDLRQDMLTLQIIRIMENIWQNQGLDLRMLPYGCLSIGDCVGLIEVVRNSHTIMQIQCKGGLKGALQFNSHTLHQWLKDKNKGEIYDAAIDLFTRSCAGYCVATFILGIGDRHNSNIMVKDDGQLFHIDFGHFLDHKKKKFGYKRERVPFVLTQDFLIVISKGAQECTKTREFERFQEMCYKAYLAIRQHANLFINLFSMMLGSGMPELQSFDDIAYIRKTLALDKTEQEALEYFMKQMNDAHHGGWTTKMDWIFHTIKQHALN
Parameter IC50: see the listing below.
Express it in nM; write the number only.

Example cases with answers are listed next.
>>> observed_measurement("CC[C@H](Nc1nc(N)nc(N)c1C#N)c1nc2c(F)ccc(Cl)c2c(=O)n1-c1cccnc1")
1500
>>> observed_measurement("Cc1c(F)cncc1-n1c([C@H](C)Nc2nc(N)nc(N)c2C#N)nc2cccc(Cl)c2c1=O (stereo in doubt; 27)")
1200

State its IC50: C[C@H](Nc1nc(N)nc(N)c1C#N)c1nc2c(Cl)ccc(Cl)c2c(=O)n1-c1cccnc1 1300

Please report IC50 for the following compound: C[C@H](Nc1nc(N)nc(N)c1C#N)c1nc2c(F)ccc(F)c2c(=O)n1-c1cccnc1 4020

Source listed as ChEMBL document CHEMBL4765230.
